Just for reference, ChEMBL document CHEMBL4513216 is where these values come from.

Recorded measurements of INHIBITION, one per entry
- Test system: Plasmodium berghei
- assay-name: Screen against P. berghei liver stage (PbLuc), transformed with Luciferase, at 10uM
- Assay type: functional, HepG2
- particulars: tested at 10 uM
The whole screen tested about 69,000 compounds, of which about 8,600 (12%) showed an effect of 50% or more. For the sample, strong results were picked, then their nearest neighbours and some compounds at random.
A complete answer gives the number and then names the unit.

Here are 10 molecules together with their reported answers.
O=C(COc1coc(CN2CCCCC2)cc1=O)c1ccc(Cl)cc1; 38.3%
CCOC(=O)Cn1c(=O)c(OCC)nc2cnccc21; 42.6%
COc1ccc2c(ccn2CCC(=O)Nc2n[nH]c(CC(C)C)n2)c1; 46.7%
Cn1nccc1CNC(=O)Nc1cc(C(F)(F)F)c[nH]c1=O; 55.1%
Cc1nc2cc(=O)[nH]n2c(C)c1CC(=O)Nc1cn[nH]c1; 53.9%
O=S(=O)(C1CC1)N1CCC[C@]2(C[C@@H](Oc3ccccn3)CO2)C1; -49.7%
CCC(CO)NCc1ccc(-c2ccc(F)cc2)o1 (stereo not given); 14.4%
Cc1cc(NC(=O)CNC2CCCN(c3cccnn3)C2)on1 (stereo not given); 21%
CC(C)(CN1CCC2(CCCNC2)C1)N1CCOCC1 (stereo not given); -41.8%
OC(CN1CCN(Cc2ccc(F)c(F)c2)CC1)C1CC1 (stereo not given); -48.4%

For the record Cn1nccc1C(=O)Nc1cc(C(F)(F)F)c[nH]c1=O , what value of INHIBITION is listed for Plasmodium berghei? 17.68%

For the record Cc1cc(C)n(CC2CCCN2C(=O)c2cccnc2N(C)C)n1 (stereo not given) , what value of INHIBITION is listed for Plasmodium berghei? 21%

---

- Tested on: Plasmodium berghei
- assay-name: Screen against P. berghei liver stage (PbLuc), transformed with Luciferase, at 10uM
- Type: functional, HepG2
- particulars: tested at 10 uM
Among all 69,000 compounds or so, about 8,600 (12%) showed an effect of 50% or more. The sample holds strong results, similar compounds and a random draw of the others, so the mix is not that of the screen.
INHIBITION of 30% or higher: t. Under 30%: f.

Worked examples, 10 molecules total:
CCc1nnc2n1CCN(Cc1cccc3c1OCCO3)C2; t
CC(C)CCN1CCC2(CC1)CN(C(=O)c1cnccn1)CCO2; f
COCC(=O)Nc1cc(Br)cnc1OCC(F)(F)F; f
Cn1ccnc1CN1CCC2(CC1)CCN(c1ccccc1)C2=O; f
COc1ccc2c(c1)CC(NCCCn1nc(C)nc1C)CC2 (stereo not given); f
Clc1ccc(CN2CCCCC2Cn2cncn2)c2ncccc12 (stereo not given); t
CC(=O)N1CCCC(C(=O)NCCc2ccc(F)c(Br)c2)C1 (stereo not given); f
CN(C)C(=O)c1ccc(-c2cccc3c2CCNC3)cc1; t
O=C1COC2(CCN(C(=O)C3CC=CC3)CC2)CN1Cc1cccnc1; f
CCOc1cc(-c2cc(=O)n3c(n2)CCCCC3)ccc1O; f

Check if INHIBITION >= 30% (inclusive). Item: Cn1ccnc1CN1CCC2(CC1)CC(N1CCCC1)c1ccccc12 (stereo not given) f

Check if INHIBITION >= 30% (inclusive). Item: Cc1cnc(-n2cnnc2)c(-c2cccc3c2CCNC3)c1 t

Check if INHIBITION >= 30% (inclusive). Item: CC(=O)NS(=O)(=O)c1ccc(F)cc1C(F)(F)F t

Check if INHIBITION >= 30% (inclusive). Item: COc1ccc(C(=O)O)cc1-c1cccc2c1CCNC2 f

Check if INHIBITION >= 30% (inclusive). Item: Cc1ncc2c(n1)CN(Cc1nc3c(F)cccc3[nH]1)CC2 f

Check if INHIBITION >= 30% (inclusive). Item: CC(C)OCc1nn(C)c2c1CN(Cc1cccs1)CC2 t

---

Recorded measurements of INHIBITION, one per entry
- Tested on: Plasmodium berghei
- assay-name: Screen against P. berghei liver stage (PbLuc), transformed with Luciferase, at 10uM
- Assay type: functional, HepG2
- particulars: tested at 10 uM
Hit rate of the full screen: of about 69,000 compounds, about 8,600 (12%) showed an effect of 50% or more. Shown is part of a subset that was picked to be rich in strong results.
A complete answer gives the number and then names the unit.

Here are 5 compounds together with their reported answers.
Cc1oncc1C(=O)N1C[C@H](OCc2ccccn2)[C@H]2OCCC[C@H]21; 15.4%
CC(C)N1CC[C@@H]2[C@H](COCC3CC3)CN(C)C(=O)[C@@H]2CC1; 10.5%
Cc1cc(NCCc2cnccn2)nc(-c2ccccc2O)n1; 17.5%
O=C(C1CCCN(CCc2ccc3c(c2)CCO3)C1)N1CCCC1 (centres undefined); 6.11%
O=C1CC(N(C(=O)CCc2cc(F)ccc2F)C2CC2)C(=O)N1 (centres undefined); 22.2%

Query: INHIBITION; subject: COCC1CN(C(=O)c2ccccn2)Cc2nccn2C1 (centres undefined) 11.5%

---

- Tested on: Plasmodium berghei
- assay-name: Screen against P. berghei liver stage (PbLuc), transformed with Luciferase, at 10uM
- Assay type: functional, HepG2
- particulars: tested at 10 uM
Screen size: about 69,000 compounds; about 8,600 (12%) showed an effect of 50% or more. This excerpt belongs to a sample that is enriched for strong results.
Recorded measurements of INHIBITION, one per entry
Report the figure in % without appending any unit label.

CN(CCCNC(=O)C1CCCN(C(N)=O)C1)S(C)(=O)=O (stereo unspecified); 19.8
CN1C[C@@H]2CN(C(=O)NCc3cccc(F)c3)CCC[C@]2(C(=O)O)C1; -10.5
Cc1cc(NC(=O)NCc2ccc(C)s2)no1; 56.8
O=S(=O)(NCc1ccc(S(=O)(=O)N2CCCC2)s1)c1ccc(Cl)c(Cl)c1; 40.6

Query: INHIBITION; subject: CCn1c(C2CCCN(Cc3cc(C)cc(C)c3)C2)nn(C)c1=O (stereo unspecified) -17.8

Query: INHIBITION; subject: CCCC(=O)N1CCC(c2cc3cccnc3c(O)n2)CC1 1.62

Query: INHIBITION; subject: CCc1ccc(CNC(=O)Nc2cc(C)on2)s1 39.7

Query: INHIBITION; subject: Cc1nc(CN2CCCC(c3cc(C(N)=O)[nH]n3)C2)oc1C (stereo unspecified) -0.113

---

- Tested on: Plasmodium berghei
- assay-name: Screen against P. berghei liver stage (PbLuc), transformed with Luciferase, at 10uM
- Type: functional, HepG2
- particulars: tested at 10 uM
The whole screen tested about 69,000 compounds, of which about 8,600 (12%) showed an effect of 50% or more. Shown is part of a subset that was picked to be rich in strong results.
observed-property: INHIBITION (%)
Report the figure in % without appending any unit label.

Here are 8 compounds together with their reported answers.
Cc1nnc2n1CCN(Cc1ncc(-c3ccc(F)cc3)o1)C2; 46.1
Cc1nc(C(C)NCc2cc(O)c3cccc(F)c3n2)cs1 (stereo not drawn); -2.48
Cc1nc(O)cc(C2CCCN2CCO)n1 (stereo not drawn); 13.5
Cc1cccc(NS(=O)(=O)c2cnn(C)c2)c1C#N; 18.9
Cc1ccc(NS(=O)(=O)c2cnn(-c3ccccc3)c2)c(C(=O)O)c1; 22.5
COc1ccc(C(=O)Nc2cccc(SC)c2)c(OC)n1; -138
CCn1nc(C)c(S(=O)(=O)Nc2cccc(C(=O)O)c2C)c1C; 62.4
CCN1CCN(C2CCN(Cc3nc(CCOC)no3)CC2)C1=O; 19.4

Query: INHIBITION; subject: CNC(=O)C1CN(Cc2cc(C)on2)CCN(C(C)=O)C1 (stereo not drawn) -21.6

Query: INHIBITION; subject: COc1cccc(CN2C[C@@H]3COC[C@]3(CNC(=O)C3CC3)C2)c1 43

Query: INHIBITION; subject: Cn1cnc2c1C(COCC1CCOCC1)CN(c1ncccn1)C2 (stereo not drawn) 33.4

---

- System: Plasmodium berghei
- assay-name: Screen against P. berghei liver stage (PbLuc), transformed with Luciferase, at 10uM
- Format: functional, HepG2
- particulars: tested at 10 uM
Screen size: about 69,000 compounds; about 8,600 (12%) showed an effect of 50% or more. The list comes from a sample in which strong results are over-represented; it also holds close analogues and randomly drawn compounds.
Recorded measurements of INHIBITION, one per entry
Report the figure in % without appending any unit label.

CCc1ccc(CN2C[C@@H]3OCCN(c4ccnc(N(C)C)n4)[C@@H]3C2)o1; 85.1

Query: INHIBITION; subject: CCC[C@@H]1CN(C(=O)c2ccccc2-c2ccccc2)C[C@H]1N(C)C 31.7

Query: INHIBITION; subject: Cc1cc(CN(C2CC2)C(C)C(C)C)no1 (stereo unspecified) -26.1

Query: INHIBITION; subject: CCC[C@@H]1CN(C(=O)c2ccccc2C(C)=O)C[C@H]1N(C)C 8.92

Query: INHIBITION; subject: Cn1cccc1C(=O)N1C[C@@H]2C[C@@H](c3nnc(C4CC4)o3)O[C@@H]2C1 43.9

Query: INHIBITION; subject: CC(=O)c1ccc(N2CCN(C(=O)NCc3cc[nH]n3)CC2)cc1 48.4

Query: INHIBITION; subject: CC(=O)N1CCC2(CC1)COCCN2CCN(C)C -8.94

Query: INHIBITION; subject: COC(=O)C(C)N(Cc1cc(C)on1)C1CC1 (stereo unspecified) 52.2

Query: INHIBITION; subject: COC(=O)C(C)N(Cc1cc(=O)n(C)c(=O)n1C)C1CC1 (stereo unspecified) -37.1

Query: INHIBITION; subject: CCC[C@@H]1CN(C(=O)c2cc3ccccc3cc2O)C[C@H]1N(C)C 51.5

Query: INHIBITION; subject: CN(C)c1nccc(N2CCO[C@H]3CN(Cc4ccco4)C[C@H]32)n1 -23.4
